Each record here notes measured pEC50.
System: MV4-11
Assay: Antiproliferative activity, MV4-11 cells (ATPLite)
Type: cell-based
Conditions: Homo sapiens; MV4-11 cell line (acute myeloid leukemia, FLT3-ITD), 72 h, cell viability by ATPLite; read-out: EC50 MV411
// pEC50: -log10(molar conc.)

1. CN1CCN(c2cc3cc(c2)OCCOCCOc2cccc(c2)-c2ccnc(n2)N3)CC1 = 8.74
2. CN1CCN(c2ccc3cc2OCCOCCOc2cccc(c2)-c2ccnc(n2)N3)CC1 = 7.24

We next turn to a different compound, shown below.
Given the entry CN1CCC(N2CCN(c3ccc4cc3OCCOCCOc3cccc(c3)-c3ccnc(n3)N4)CC2)CC1 , report its measured pEC50.
6.61

====

Target: JAK2 (Homo sapiens)
Sequence (O60674 whole entry): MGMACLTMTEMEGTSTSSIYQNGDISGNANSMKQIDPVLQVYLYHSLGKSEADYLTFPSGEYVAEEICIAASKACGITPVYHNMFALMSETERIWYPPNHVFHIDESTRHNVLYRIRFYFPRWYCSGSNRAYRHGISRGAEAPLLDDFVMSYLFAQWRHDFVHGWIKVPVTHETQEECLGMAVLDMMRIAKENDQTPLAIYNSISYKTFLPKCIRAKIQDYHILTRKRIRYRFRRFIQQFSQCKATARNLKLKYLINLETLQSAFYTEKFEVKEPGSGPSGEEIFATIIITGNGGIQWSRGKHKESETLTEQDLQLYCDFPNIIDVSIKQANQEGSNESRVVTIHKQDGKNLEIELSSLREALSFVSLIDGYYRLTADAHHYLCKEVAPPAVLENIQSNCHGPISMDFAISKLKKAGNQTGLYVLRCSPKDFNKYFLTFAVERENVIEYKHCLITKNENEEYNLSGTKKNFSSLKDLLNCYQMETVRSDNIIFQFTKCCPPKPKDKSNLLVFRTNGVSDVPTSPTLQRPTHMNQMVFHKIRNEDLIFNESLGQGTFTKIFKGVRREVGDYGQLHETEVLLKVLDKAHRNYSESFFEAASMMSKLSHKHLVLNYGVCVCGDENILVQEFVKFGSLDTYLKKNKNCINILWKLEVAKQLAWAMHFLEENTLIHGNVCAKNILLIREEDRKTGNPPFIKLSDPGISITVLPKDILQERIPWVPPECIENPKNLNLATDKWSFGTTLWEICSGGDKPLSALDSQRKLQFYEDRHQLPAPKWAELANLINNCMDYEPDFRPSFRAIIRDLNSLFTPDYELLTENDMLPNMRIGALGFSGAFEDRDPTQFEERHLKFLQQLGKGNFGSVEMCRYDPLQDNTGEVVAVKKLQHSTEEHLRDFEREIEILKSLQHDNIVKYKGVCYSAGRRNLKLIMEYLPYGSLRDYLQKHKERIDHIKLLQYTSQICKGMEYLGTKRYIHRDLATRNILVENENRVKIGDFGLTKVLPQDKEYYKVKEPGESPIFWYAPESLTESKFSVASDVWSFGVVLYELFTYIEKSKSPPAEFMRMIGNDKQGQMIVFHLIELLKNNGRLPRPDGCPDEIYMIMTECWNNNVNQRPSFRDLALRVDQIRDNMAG
Experiment: LanthaScreen TR-FRET binding test, JAK2
Conditions: recombinant enzyme 15 nM, kinase tracer 236 150 nM, 25° C., 1 hour
OBSERVABLE: IC50 (nM)
Unit nM implied. Number only.

1) CN1CCN(c2cc3cc(c2)OCCOCCOc2cccc(c2)-c2ccnc(n2)N3)CC1 = 60
2) CN1CCC(N2CCN(c3ccc4cc3OCCOCCOc3cccc(c3)-c3ccnc(n3)N4)CC2)CC1 = 5.2

Here is another compound to look at.
# IC50 lookup, item CN1CCN(c2ccc3cc2OCCOCCOc2cccc(c2)-c2ccnc(n2)N3)CC1
7.7

====

Below, each entry is listed with its recorded IC50.
Target: JAK3 (Homo sapiens)
Sequence (P52333 whole entry): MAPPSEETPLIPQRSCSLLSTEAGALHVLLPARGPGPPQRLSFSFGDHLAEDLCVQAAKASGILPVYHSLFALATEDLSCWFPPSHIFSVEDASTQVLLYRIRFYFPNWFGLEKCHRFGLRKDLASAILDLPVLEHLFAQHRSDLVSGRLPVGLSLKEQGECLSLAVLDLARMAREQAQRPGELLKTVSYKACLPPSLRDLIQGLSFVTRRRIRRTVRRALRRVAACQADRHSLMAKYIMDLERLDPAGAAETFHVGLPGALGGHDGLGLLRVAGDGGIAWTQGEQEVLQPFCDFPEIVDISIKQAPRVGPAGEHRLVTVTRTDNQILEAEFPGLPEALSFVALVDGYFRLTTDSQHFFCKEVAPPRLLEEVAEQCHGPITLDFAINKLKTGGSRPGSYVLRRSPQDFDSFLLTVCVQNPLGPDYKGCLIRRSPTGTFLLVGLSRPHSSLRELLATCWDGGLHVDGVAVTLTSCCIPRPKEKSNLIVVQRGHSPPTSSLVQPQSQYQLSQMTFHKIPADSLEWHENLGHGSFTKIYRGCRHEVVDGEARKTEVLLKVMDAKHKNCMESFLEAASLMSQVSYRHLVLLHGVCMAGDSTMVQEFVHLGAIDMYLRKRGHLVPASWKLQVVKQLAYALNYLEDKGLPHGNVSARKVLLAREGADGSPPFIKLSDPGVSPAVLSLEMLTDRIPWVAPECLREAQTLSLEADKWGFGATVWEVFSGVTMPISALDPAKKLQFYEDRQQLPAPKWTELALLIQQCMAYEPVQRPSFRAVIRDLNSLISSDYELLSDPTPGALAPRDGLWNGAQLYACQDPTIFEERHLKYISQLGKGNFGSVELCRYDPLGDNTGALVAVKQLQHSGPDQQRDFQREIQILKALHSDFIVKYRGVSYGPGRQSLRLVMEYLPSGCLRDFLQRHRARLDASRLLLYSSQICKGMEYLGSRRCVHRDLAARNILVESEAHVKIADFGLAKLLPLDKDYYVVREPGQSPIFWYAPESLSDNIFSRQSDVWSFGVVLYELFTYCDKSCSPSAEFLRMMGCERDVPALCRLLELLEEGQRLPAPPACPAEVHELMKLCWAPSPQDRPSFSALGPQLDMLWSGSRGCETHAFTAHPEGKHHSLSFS
Test: LanthaScreen TR-FRET binding test, JAK3
Settings: recombinant enzyme 15 nM, kinase tracer 236 3 nM, 25° C., 1 hour
Just the number please, in nM, no unit attached.

1) CN1CCN(c2cc3cc(c2)OCCOCCOc2cccc(c2)-c2ccnc(n2)N3)CC1 = 100
2) CN1CCN(c2ccc3cc2OCCOCCOc2cccc(c2)-c2ccnc(n2)N3)CC1 = 50

Moving on to another compound below.
Give the measured IC50 of CN1CCC(N2CCN(c3ccc4cc3OCCOCCOc3cccc(c3)-c3ccnc(n3)N4)CC2)CC1 .
50

====

Target: FLT3 (Homo sapiens, UniProt P36888)
Sequence (P36888 27-993): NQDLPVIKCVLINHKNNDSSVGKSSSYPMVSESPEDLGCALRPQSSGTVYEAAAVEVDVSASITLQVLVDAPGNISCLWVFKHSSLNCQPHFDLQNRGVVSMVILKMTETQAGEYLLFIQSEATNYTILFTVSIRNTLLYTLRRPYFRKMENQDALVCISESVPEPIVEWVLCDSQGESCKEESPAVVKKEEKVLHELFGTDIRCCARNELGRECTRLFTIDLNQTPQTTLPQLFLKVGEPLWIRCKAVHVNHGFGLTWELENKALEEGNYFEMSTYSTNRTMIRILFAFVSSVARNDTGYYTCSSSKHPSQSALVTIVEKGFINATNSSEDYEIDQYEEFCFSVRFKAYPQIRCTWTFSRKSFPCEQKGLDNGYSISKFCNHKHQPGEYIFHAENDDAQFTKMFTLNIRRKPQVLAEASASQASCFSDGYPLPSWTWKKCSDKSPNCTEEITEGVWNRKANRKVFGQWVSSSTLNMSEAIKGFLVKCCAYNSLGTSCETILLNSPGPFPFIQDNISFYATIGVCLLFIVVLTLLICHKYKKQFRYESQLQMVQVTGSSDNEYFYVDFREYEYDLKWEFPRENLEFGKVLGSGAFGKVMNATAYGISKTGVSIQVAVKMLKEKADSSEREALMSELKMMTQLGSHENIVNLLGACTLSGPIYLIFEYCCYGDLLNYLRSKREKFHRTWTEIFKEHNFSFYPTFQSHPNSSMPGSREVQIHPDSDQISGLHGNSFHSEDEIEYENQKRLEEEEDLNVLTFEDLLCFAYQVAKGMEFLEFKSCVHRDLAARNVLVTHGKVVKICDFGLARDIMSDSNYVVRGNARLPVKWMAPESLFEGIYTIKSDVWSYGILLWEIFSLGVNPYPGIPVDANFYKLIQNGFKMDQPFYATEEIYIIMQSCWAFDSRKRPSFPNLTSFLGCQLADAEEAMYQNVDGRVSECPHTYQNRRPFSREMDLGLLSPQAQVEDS
Assay: LanthaScreen TR-FRET binding test, FLT3
Details: recombinant enzyme 15 nM, kinase tracer 236 3 nM, 25° C., 1 hour
OBSERVABLE: IC50 (nM)
Write down the numeric answer in nM and omit the unit.

Sample answers from the record:
1) CN1CCN(c2ccc3cc2OCCOCCOc2cccc(c2)-c2ccnc(n2)N3)CC1 = 25.5
2) CN1CCC(N2CCN(c3ccc4cc3OCCOCCOc3cccc(c3)-c3ccnc(n3)N4)CC2)CC1 = 110

Any idea what its IC50 is? The molecule is CN1CCN(c2cc3cc(c2)OCCOCCOc2cccc(c2)-c2ccnc(n2)N3)CC1
4.7

====

We begin with a simple list: items and their reported IC50.
Target: FLT3^D835Y (Homo sapiens, UniProt P36888, D835Y)
Assay: LanthaScreen TR-FRET binding test, FLT3 D835Y
Conditions: 15 nM protein, kinase tracer 236 3 nM, 25° C., 1 hour

These solved cases illustrate the format of a correct answer.
1) CN1CCC(N2CCN(c3ccc4cc3OCCOCCOc3cccc(c3)-c3ccnc(n3)N4)CC2)CC1 = 41.2 nM
2) CN1CCN(c2ccc3cc2OCCOCCOc2cccc(c2)-c2ccnc(n2)N3)CC1 = 35 nM

Kindly consider the entry below.
# returns recorded IC50 (system: FLT3^D835Y (Homo sapiens, UniProt P36888, D835Y)) for CN1CCN(c2cc3cc(c2)OCCOCCOc2cccc(c2)-c2ccnc(n2)N3)CC1
6.2 nM
